Assay: Plasma toxicokinetics after single i.v. bolus
Type: in vivo, Sprague-Dawley rats
Recorded Conditions: both sexes, Sprague-Dawley, rat, plasma, iv, elimination half-life (t1/2), range over the anatabine treatment groups, anatabine 0.1-1.0 mg/kg single i.v., rats M + F
Measured Quantity: half-life

[[record]]
compound = "C1=CCC(c2cccnc2)NC1 (racemic) [Anatabine, 1,2,3,6-tetrahydro-[2,3′]bipyridinyl]"
measured_quantity = "half-life"
result = "1.64 to 1.68 h"


----------
Assay: Plasma pharmacokinetics after oral multi-dose anatabine polacrilex
Type: in vivo, Sprague-Dawley rats
Recorded Conditions: female, Sprague-Dawley, rat, plasma, oral, 0.2 mg/kg BW, Avg. Conc. of anatabine in plasma, dose group 0.2, female, 600 min
Measured Quantity: concentration at 600 min

[[record]]
molecule = "C1=CCC(c2cccnc2)NC1 (racemic) [Anatabine, 1,2,3,6-tetrahydro-[2,3′]bipyridinyl]"
result = "28 ng/mL"


----------
Assay: Concentration in brain extracts after single i.v. bolus
Assay type: in vivo, Sprague-Dawley rats
Recorded Conditions: male, Sprague-Dawley, rat, brain, intravenous, 0.1 mg/kg, Anatabine 0.1 mg/kg; male; 6 hr; read-out: Avg. Conc. rat brain
Measured Quantity: concentration at 6 h (ng/g)

[[record]]
compound = "C1=CCC(c2cccnc2)NC1 (racemic) [Anatabine, 1,2,3,6-tetrahydro-[2,3′]bipyridinyl]"
measured_quantity = "concentration at 6 h"
numeric_readout = 3


----------
Assay: Concentration in brain extracts after single i.v. bolus
Type: in vivo, Sprague-Dawley rats
Recorded Conditions: Sprague-Dawley, rat, brain, intravenous, 0.1 mg/kg, Concentration of anatabine in rat brain extract, Anatabine 0.1 mg/kg, Rat Brain, 0.5 hr, individual rats
Procedure: Six rats (3 males and 3 females) were dosed per dose group. […] Plasma and brain homogenates were stored at −80° C. until analysis. […] Sample preparation. […] The amount of the test agent in the supernatant was determined by liquid chromatography tandem mass spectrometry (LC/MS/MS). […] Calibration samples. Calibration curves were determined for both rat plasma and brain homogenate. […]
Measured Quantity: concentration at 0.5 h (ng/mL)

[[record]]
molecule = "C1=CCC(c2cccnc2)NC1 (racemic) [Anatabine, 1,2,3,6-tetrahydro-[2,3′]bipyridinyl]"
unit_abbrev = "ng/mL"
numeric_readout = 19


----------
Assay: Plasma pharmacokinetics after oral multi-dose anatabine polacrilex
Type: in vivo, Sprague-Dawley rats
Recorded Conditions: male, Sprague-Dawley, rat, plasma, po, 6 mg/kg, male rats, mean; read-out: t1/2, terminal (converted)
Measured Quantity: half-life (h)

[[record]]
compound = "C1=CCC(c2cccnc2)NC1 (racemic) [Anatabine, 1,2,3,6-tetrahydro-[2,3′]bipyridinyl]"
measured_quantity = "half-life"
numeric_readout = 5.07


----------
Assay: Concentration in brain extracts after single i.v. bolus
Assay type: in vivo, Sprague-Dawley rats
Recorded Conditions: male, Sprague-Dawley, rat, brain, intravenous, 1 mg/kg, anatabine 1.0 mg/kg i.v., 0.5 hr, Male; read-out: Mean concentration in rat brain extracts
Measured Quantity: concentration at 0.5 h (ng/g)

[[record]]
compound = "C1=CCC(c2cccnc2)NC1 (racemic) [Anatabine, 1,2,3,6-tetrahydro-[2,3′]bipyridinyl]"
numeric_readout = 323


----------
Assay: Plasma toxicokinetics after single i.v. bolus
Type: in vivo, Sprague-Dawley rats
Recorded Conditions: male, Sprague-Dawley, rat, plasma, intravenous, 0.75 mg/kg, Anatabine 0.75 mg/kg; male; 6 hr (1st 6 hr line); read-out: Avg. Conc. rat plasma
Measured Quantity: concentration at 6 h (ng/mL)

[[record]]
molecule = "C1=CCC(c2cccnc2)NC1 (racemic) [Anatabine, 1,2,3,6-tetrahydro-[2,3′]bipyridinyl]"
measured_quantity = "concentration at 6 h"
numeric_readout = 14


FYI, the data here is from patent US20120196899A1.
